Hello, the source for this data is PubChem BioAssay (NCI), in case you need it.

# System: 786-0 renal
# assay.notes: NCI-60 one-dose screen, 48 h (100 = growth as untreated, 0 = no growth, -100 = all killed)
# run.conditions: 10 µM unless noted
This is part of a sample that, as a whole, favours compounds with a hit. Of some 83,000 tested, about 20% had one in any assay.
Define the label as YES when growth is strictly less than 80% and as NO in all remaining cases.

Before answering, review these 5 worked examples.
molecule	assay.target	qualitative.label
COc1cc2c(cc1OCCCCCN1CCN(c3ncnc4ccccc34)CC1)N=CC1CCCN1C2=O (stereo not drawn)	786-0 renal	YES
Cc1nn(-c2ccccc2)c2c1N=c1s/c(=C\c3cn(-c4ccccc4)nc3-c3ccc(Cl)cc3)c(=O)n1C(C)N2 (stereo not drawn)	786-0 renal	YES
CC(=O)Oc1ccccc1C(=O)N=C1[Se]CCN1C(=O)c1ccccc1OC(C)=O	786-0 renal	YES
Cn1ncc(Cl)c1-c1cc(C(=O)N[C@H](CN)Cc2cccc(F)c2)sc1Cl	786-0 renal	YES
CCn1c(-c2nonc2N)nc2c(C#CC(C)(C)O)ncc(OC[C@H]3CCCNC3)c21	786-0 renal	YES

Q. Regarding O=C(c1ccc(F)c(F)c1Nc1ccc(I)cc1F)N1CC(O)([C@@H]2CCCCN2)C1 , kindly confirm whether its growth is beneath 80%.
A. YES

Q. Is growth of CNC(=O)c1c(C)oc2cc(Oc3ncnc4cc(OC)c(OC)cc34)ccc12 strictly below 80%?
A. NO

Q. Is growth of CC(C)(C)OC(=O)N1CCC(O)[C@@H](O[Si](c2ccccc2)(c2ccccc2)C(C)(C)C)[C@H]1/C=C/c1ccccc1 (stereo partly drawn) strictly below 80%?
A. YES

Q. Input CNC(=O)c1cccc2cc(Oc3ccnc4cc(OCC5(N)CC5)c(OC)cc34)ccc12 ; condition: growth strictly below 80%. Does it hold?
A. YES

* * *

# System: HOP-92 NSCLC
# assay.notes: NCI-60 one-dose screen, 48 h (100 = growth as untreated, 0 = no growth, -100 = all killed)
# run.conditions: 10 µM unless noted
The panel holds about 83,000 compounds, 20% with a hit somewhere; the sample as a whole holds those more often.
With a cut-off of 40%, any growth strictly below it is called true; any growth meeting it or above is called false.

compound	qualitative.label
CCCCCCCC(=O)SCC/C=C/[C@@H]1CC(=O)NCc2nc(co2)C2=N[C@@](C)(CS2)C(=O)N[C@@H](C(C)C)C(=O)O1	true
N#CCNC(=O)c1ccc(-c2ccnc(Nc3ccc(N4CCOCC4)cc3)n2)cc1	false
CCCCN1CCCC[C@@H]1C(=O)N[C@H](C(=O)N(C)[C@H](CCc1nc(C(=O)N[C@@H](Cc2ccccc2)C[C@H](C)C(=O)OC)cs1)C(C)C)C(C)C	true

Q. Could you please tell me whether growth recorded for COc1cc2c(cc1OCCCCCN1CCN(c3ncnc4ccccc34)CC1)N=CC1CCCN1C2=O (configuration not stated) is less than 40%?
A. true

Q. Say whether its growth is strictly beneath 40%. Entry: CCN(CC)CCNc1ccc(N=Nc2cnc3ccccc3c2)c2ccccc12
A. true

Q. # TODO verify growth < 40% strictly for this compound: Cc1cc2c(-c3nc4ccccn4c3Nc3cccc4ccccc34)c(O)c(O)cc2c(O)c1-c1c(C)cc2c(-c3nc4ccccn4c3Nc3cccc4ccccc34)c(O)c(O)cc2c1O
A. true

* * *

# Test system: HCT-15 colon
# assay.notes: NCI-60 one-dose screen, 48 h (100 = growth as untreated, 0 = no growth, -100 = all killed)
# run.conditions: 10 µM unless noted
The panel holds about 83,000 compounds, 20% with a hit somewhere; the sample as a whole holds those more often.
// growth lookup, one value per entry
Reply numerically in %, unit not repeated.

Solved entries (count: 5):
compound	growth (%)
N#Cc1ccc(-n2nnc3ccccc32)cc1C#N	99.8
C[C@@H](Oc1cc(-n2cnc3ccc(CN4CCN(C)CC4)cc32)sc1C(N)=O)c1ccccc1C(F)(F)F	6.53
O=C(NCCO)Nc1ccc(-c2nc(N3CCOCC3)c3cccn3n2)cc1	11.5
CC(=O)C(C(C)=O)C(c1ccccc1)C(C(C)=O)C(C)=O	100
Clc1ccc2c(NCCNc3nc(N4CCCC4)nc4ccccc34)ccnc2c1	-34.5

Q. Annotate the compound N#CCNC(=O)c1ccc(-c2ccnc(Nc3ccc(N4CCOCC4)cc3)n2)cc1 with its measured growth.
A. 20.7

Q. State its growth: Cc1ccccc1Nc1nc2nonc2nc1Nc1cccc(C)c1C
A. 44.8

Q. State, in one line, measured growth of O=C1CC(c2ccc(Cl)cc2)c2ncn(-c3cccc(Cl)c3)c2N1 (stereo not given)
A. 27.7

Q. Give the measured growth for CCCS(=O)(=O)Nc1ccc(F)c(C(=O)c2c[nH]c3ncc(-c4ccc(Cl)cc4)cc23)c1F
A. 28.4

* * *

# Tested on: NCI-H226 lung
# assay.notes: NCI-60 one-dose screen, 48 h
# run.conditions: 10 µM unless noted
# Description: Growth inhibition of the NCI-H226 human Non-Small Cell Lung tumor cell line is measured as a screen for anti-cancer activity. Cells are grown in 96 well plates and exposed to the test compound for 48 hours. Compounds are tested at a single concentration, which is 10^-5 M for most compounds. The reported endpoint is percent growth (GI% or GIPRCNT), where numbers from 0 - 100% represent growth inhibition, and numbers from -100% - 0 represent cell death. […]
About 83,000 compounds went through this panel and 20% of them were active in at least one assay; those are over-represented in the sample as a whole. Calls of active or inactive are those of the source. How the source made its calls: active means growth percent below 10; inactive means the rest.
Would you mind answering with one of these outcomes? TRUE for active, FALSE for inactive

Consider the worked cases shown below.
compound	qualitative.label
C[C@H]1Oc2cc(cnc2N)-c2c(nn(C)c2C#N)CN(C)C(=O)c2ccc(F)cc21	FALSE
CC(=O)C1=C(C)NC(SCc2nnc(-c3ccc(C)cc3)o2)=NC1c1ccc(F)cc1 (centres undefined)	FALSE
COc1cc2nc(Nc3cccc(Cl)c3)nc(N)c2cc1OC	FALSE
COc1cc(C2CC(c3ccc(Cl)cc3)=NN2c2ccc(Cl)cc2)cc(OC)c1OC (centres undefined)	FALSE
Cn1ccnc1C(=O)/C=C/c1ccc(CC(=O)Nc2ccc(S(F)(F)(F)(F)F)cc2)cc1	TRUE
Clc1ccc(Nc2nccc(Nc3ccc4[nH]ncc4c3)n2)cc1	FALSE

Q. Could you check what this test reported for O=C(Nc1ccc(C2=NCCCN2)cc1)c1ccc(C(=O)Nc2ccc(C3=NCCCN3)cc2)nc1 ?
A. FALSE

Q. // outcome(item) with item = O=C(Nc1ccc(-c2ccnc(Nc3ccc(N4CCOCC4)cc3)n2)cc1)[C@@H]1CCCN1
A. FALSE

Q. Would you mind telling me which call this test gave O=C(NO)c1ccc(Cn2c(=O)n(-c3ccccc3F)c(=O)c3ccccc32)cc1 ?
A. FALSE

* * *

# Tested on: NCI-H522 lung
# assay.notes: NCI-60 one-dose screen, 48 h (100 = growth as untreated, 0 = no growth, -100 = all killed)
# run.conditions: 10 µM unless noted
The panel holds about 83,000 compounds, 20% with a hit somewhere; the sample as a whole holds those more often. The source made the active and inactive calls. How the source made its calls: active means growth percent below 10; inactive means the rest.
observed.property: growth

For orientation, consider the following solved cases.
compound	assay.target	growth
COc1cc2c3c(c1)nc(C)n3CCC2	NCI-H522 lung	93.4% (inactive)
CCN1CCN(c2nc(C)cc(N(CCCNc3ccnc4cc(Cl)ccc34)Cc3ccc4c(c3)OCO4)n2)CC1	NCI-H522 lung	-43.1% (active)
Clc1ccc(C(Cn2ccnc2)OCc2ccsc2Cl)c(Cl)c1 (configuration not stated)	NCI-H522 lung	35.1% (inactive)
Nc1nc(Nc2ccccc2)c(C=Nc2ccccc2)c(=O)[nH]1	NCI-H522 lung	57.9% (inactive)
CN1C/C=C\CCOc2cccc(c2)-c2ccnc(n2)Nc2cccc(c2)C1	NCI-H522 lung	-70.1% (active)

Q. Provide only the value of recorded growth for Cc1cc2c(F)c(Oc3ncnn4cc(OC[C@@H](C)OC(=O)[C@H](C)N)c(C)c34)ccc2[nH]1
A. 58.1% (inactive)

Q. Give the measured growth for O=C(Cc1ccc(-c2ccc(OCCN3CCOCC3)cc2)cn1)NCc1ccccc1
A. -5.77% (active)

Q. Please indicate growth recorded for Cc1cc(-c2cc(OC(=O)c3ccccc3)ccc2Cl)cc2nnc(Nc3ccc(OCCN4CCCC4)cc3)nc12
A. 49.2% (inactive)

* * *

# System: MCF7 breast
# assay.notes: NCI-60 one-dose screen, 48 h (100 = growth as untreated, 0 = no growth, -100 = all killed)
# run.conditions: 10 µM unless noted
This is part of a sample that, as a whole, favours compounds with a hit. Of some 83,000 tested, about 20% had one in any assay. The source made the active and inactive calls. Rule for the calls: active = growth percent below 10; inactive = the rest.
Consider the following compounds and their measured growth readings.

Example compounds with recorded growth:
compound	assay.target	value.measured
CCOC(=O)C1=C(C)N=C2Sc3cc(OC(F)(F)F)ccc3N2[C@H]1c1ccccn1	MCF7 breast	41.3% (inactive)
O=C(NOCCO)c1ccc2cncn2c1Nc1ccc(I)cc1F	MCF7 breast	96.2% (inactive)
COc1cc2c(Oc3ccc(NC(=O)C4(C(=O)Nc5ccc(F)cc5)CC4)cc3F)ccnc2cc1OCCCN1CCOCC1	MCF7 breast	-22.2% (active)
O=S1(=O)OC(c2cc(Cl)c(O)c(Br)c2)(c2cc(Cl)c(O)c(Br)c2)c2ccccc21	MCF7 breast	104% (inactive)
CCCCCC(=O)OCc1ccc(Cl)c(Cl)c1	MCF7 breast	93.9% (inactive)
Cc1nc(NC(=O)N2CCC[C@H]2C(N)=O)sc1-c1ccnc(C(C)(C)C(F)(F)F)c1	MCF7 breast	13.9% (inactive)
O=C(c1ccccc1)C(c1ccccc1)N1CCOCC1 (stereo not drawn)	MCF7 breast	98.3% (inactive)
CC(=O)c1cnc2ccc(-c3cc(Cl)c(O)c(Cl)c3)nc2c1NC1CCC(CN(C)C)CC1 (stereo not drawn)	MCF7 breast	-4.22% [2.5 µM] (active)
CN1CCN(c2ccc(OC(F)(F)F)c(Nc3ncc4c(n3)-c3c(c(C(N)=O)nn3CCO)CC4)c2)CC1	MCF7 breast	22.1% (inactive)
CC[C@H](CO)Nc1nc(NCc2ccccc2)c2ncn(C(C)C)c2n1	MCF7 breast	31.5% (inactive)

Q. Answer with reported growth of S=C(NCc1ccc2c(c1)OCO2)N1CCN(c2ncnc3c2oc2ccccc23)CC1
A. 18.7% (inactive)

Q. Dear colleague, please send me the reported growth for CO[C@@H](C)Cn1c(=O)n(C)c2cnc3ccc(-c4cncc(C(C)(C)O)c4)cc3c21 when you can.
A. 6.25% (active)

Q. Return growth for the following compound: Cn1cc(-c2[nH]c3cc(NC(=O)[C@H](N)C4CCCCC4)cc4c3c2C=NNC4=O)cn1
A. -12.1% (active)

Q. Given the compound CC1CCC(n2cnc3c(Cl)ncnc32)O1 (stereo not drawn) , write its reported growth.
A. 90.1% (inactive)

Q. Name the recorded growth of the item CN(C)C/C=C/C(=O)Nc1cc2c(Nc3ccc(F)c(Cl)c3)ncnc2cc1O[C@H]1CCOC1 in your answer.
A. 3.59% (active)

Q. Return the recorded growth value; entry: COc1cc(N2CCC(N(C)C)CC2)ccc1Nc1ncc(Cl)c(Nc2ccccc2P(C)(C)=O)n1
A. 33.1% (inactive)

Q. In one line, give reported growth of the entry CNC(=O)c1cc(Oc2cccc3nc(Nc4ccc(Oc5ccccc5)cc4)ccc23)ccn1 .
A. 43.2% (inactive)
